Target: T1, human recombinant, biotinylated DKK1 (Homo sapiens, UniProt O94907)
T1 sequence (O94907 32-266): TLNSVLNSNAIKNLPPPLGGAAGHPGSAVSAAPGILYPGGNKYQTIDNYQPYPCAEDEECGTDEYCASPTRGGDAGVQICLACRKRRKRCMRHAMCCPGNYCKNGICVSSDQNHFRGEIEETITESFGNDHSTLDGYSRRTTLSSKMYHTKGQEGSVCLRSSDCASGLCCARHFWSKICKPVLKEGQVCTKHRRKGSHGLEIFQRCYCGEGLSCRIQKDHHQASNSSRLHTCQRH
Assay: ELISA binding of matured Fabs in presence of 50% human serum
Conditions: Fab 1 μg/ml
Marks after values point to notes of the source that are not given here.
Below: a set of entries, each annotated with reported Binding activity w/50% Human serum vs 4% BSA (%).
resultType: Binding activity w/50% Human serum vs 4% BSA (%)

molecule="MOR04914: affinity-optimized Fab from MOR04470; VH SEQ ID NO: 14, VL SEQ ID NO: 33 (antibody, listed as Homo sapiens, V domains shown) VH: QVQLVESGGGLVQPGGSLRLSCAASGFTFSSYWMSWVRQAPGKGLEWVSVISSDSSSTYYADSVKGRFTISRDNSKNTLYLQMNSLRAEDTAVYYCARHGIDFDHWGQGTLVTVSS VL: DIALTQPASVSGSPGQSITISCTGTSSDLGGYNYVSWYQQHPGKAPKLMIYDVNNRPSGVSNRFSGSKSGNTASLTISGLQAEDEADYYCQSYTYTPISPVFGGGTKLTVLGQ" observed="83* %"
molecule="MOR04921: affinity-optimized Fab from MOR04461; VH SEQ ID NO: 12, VL SEQ ID NO: 31 (antibody, listed as Homo sapiens, V domains shown) VH: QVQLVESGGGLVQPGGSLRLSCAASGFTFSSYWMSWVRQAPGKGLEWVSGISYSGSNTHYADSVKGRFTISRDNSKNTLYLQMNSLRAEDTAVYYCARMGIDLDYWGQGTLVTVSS VL: DIALTQPASVSGSPGQSITISCTGTSSDVGGFNYVSWYQQHPGKAPKLMIHDGSNRPSGVSNRFSGSKSGNTASLTISGLQAEDEADYYCQTWATSPLSSVFGGGTKLTVLGQ" observed="93* %"
molecule="MOR04954: affinity-optimized Fab from MOR04470; VH SEQ ID NO: 18, VL SEQ ID NO: 37 (antibody, listed as Homo sapiens, V domains shown) VH: QVQLVESGGGLVQPGGSLRLSCAASGFTFSSYWMSWVRQAPGKGLEWVSVIEHKDKGGTTYYAASVKGRFTISRDNSKNTLYLQMNSLRAEDTAVYYCARHGIDFDHWGQGTLVTVSS VL: DIALTQPASVSGSPGQSITISCTGTSSDLGGYNYVSWYQQHPGKAPKLMIYDVNNRPSGVSNRFSGSKSGNTASLTISGLQAEDEADYYCQSYASGNTKVVFGGGTKLTVLGQ" observed=">83* %"
